tested on: HOP-62; experiment: NCI tumour cell line growth inhibition, 48 h
The source made the active and inactive calls. Rule as the data show it: active = GI50 up to about 1.1 µM and inactive = higher.
Reply using exactly one outcome from true for active, false for inactive

COMPOUND: CN/N=C(\C)CC(=O)Nc1cccc(Cl)c1C
MEASUREMENT_TARGET: HOP-62
CLASSIFICATION: false

Kindly review the next compound as well.
Enquiry: Outcome logged for `C/C(CCN(C)C)=N/O` in this assay:
Return: false

---

tested on: RPMI-8226; experiment: NCI tumour cell line growth inhibition, 48 h
Calls of active or inactive are those of the source. No stated cut-off is given here; in the data, active = GI50 up to about 1.1 µM and inactive = higher.
Reply using exactly one outcome from active, inactive

MOLECULE: Cc1cccc2c1C/C(=C\c1cccc(C)c1C(=O)O)C2=O
CLASSIFICATION: inactive

MOLECULE: CSc1nc(=O)cnn1C
CLASSIFICATION: inactive

MOLECULE: C=CC1=CC(C)C[C@]1(O)C(=O)OC (stereo not given in full)
CLASSIFICATION: active

MOLECULE: Oc1cccnc1/C=N/OCc1ccccc1
CLASSIFICATION: inactive

MOLECULE: CCOC(=O)C12CCCC1(O)N(NC(=O)OC)C(C)=C2C(=O)OC (stereo not given)
CLASSIFICATION: inactive

MOLECULE: N#CC(C#N)=Cc1cccc(Oc2ccccc2)c1
CLASSIFICATION: inactive

MOLECULE: O=C1C(Br)=CC2(C=C1Br)CCNC1=C2C(=O)c2[nH]cnc2C1=O
CLASSIFICATION: inactive

MOLECULE: CC(NC(=O)C(Cc1ccc(OC(=O)c2ccccc2)cc1)NC(=O)OC(C)(C)C)C(=O)NCC(=O)NC(Cc1ccccc1)NC(=O)OCc1ccccc1 (stereo not given)
CLASSIFICATION: inactive

MOLECULE: COC(=O)C(Cc1c[nH]c2ccccc12)NC(=O)C(Cc1c[nH]c2ccccc12)NC(=O)OCc1ccccc1 (stereo not given)
CLASSIFICATION: inactive

Kindly review the next molecule as well.
Enquiry: Outcome logged for CCOC(=O)C1N(S(=O)(=O)c2ccc(C)cc2)CCC12c1ccccc1N(C(C)=O)C2c1ccc(OC)c(OC)c1 (stereo not given) in this assay:
Return: inactive
